- Target or system: rat NaPi-2b (Rattus norvegicus)
- Test summary: Sodium-dependent phosphate uptake of Xenopus oocytes which expressed NaPi-2b (32P)
- Stated conditions: Xenopus oocytes expressing rat NaPi-2b, 32P radioactive phosphorus; read-out: IC50 (phosphate uptake inhibitory activity)
- Method: Pharmacological Test Example 1 Experiment of Sodium-Dependent Phosphate Uptake of Xenopus oocytes which Expressed NaPi-2b Degenerate primers were prepared from sequences of mouse NaPi-2b disclosed in Hilfiker H. et al., Pro Natl Acad Sci USA, 95 (24): 14564-14569, […] and sequences of human and rat NaPi-2a disclosed in Magagnin S. et al., Proc Natl Aca Sci USA, 90 (13): 5979-5983, 1993. RNA was extracted from the rat small intestine using ISOGEN; manufactured by NIPPON GENE CO., LTD (Japan). […]
Examples of compounds with documented IC50 follow.

{"Compound": "COc1ccc(C(=O)Nc2ccc(Br)cc2C(=O)N/N=C/c2ccc(C)c(C)c2)cc1OC [Compound 91]", "Target or system": "rat NaPi-2b (Rattus norvegicus)", "Data value": "0.22 µM"}
{"Compound": "O=C(Nc1ccc(Cl)cc1C(=O)N/N=C/c1ccc(Cl)c(C(F)(F)F)c1)c1cccc(CS(=O)(=O)Cc2ccco2)c1 [Compound 688]", "Target or system": "rat NaPi-2b (Rattus norvegicus)", "Data value": "< 3 µM"}

Hello, please tell me recorded IC50 for this one: Cc1ccc(/C=N/NC(=O)c2c(NC(=O)c3cccc(CSCCCO)c3)sc3c2CCCC3)cc1C [Compound 605] 0.95 µM

Hello, please tell me recorded IC50 for this one: CC(O)CN(Cc1cccc(C(=O)Nc2sc3c(c2C(=O)N/N=C/c2ccc(F)cc2)CCCC3)c1)CC(C)O (stereo not drawn) [Compound 629] 3.01 µM

Hello, please tell me recorded IC50 for this one: O=C(Nc1ccc(Br)cc1C(=O)N/N=C/c1ccc(Cl)c(C(F)(F)F)c1)c1ccncc1 [Compound 171] 5.12 µM

Hello, please tell me recorded IC50 for this one: COc1cc(OC)cc(C(=O)Nc2ccc(Br)cc2C(=O)N/N=C/c2ccc(F)cc2)c1 [Compound 115] 5.48 µM

Hello, please tell me recorded IC50 for this one: Cc1ccc(/C=N/NC(=O)c2cc(Br)ccc2NC(=O)c2ccno2)cc1C [Compound 512] 28.3 µM

###

- Target or system: rat NaPi-2b (Rattus norvegicus, UniProt Q9JJ09)
- Sequence (Q9JJ09 whole entry): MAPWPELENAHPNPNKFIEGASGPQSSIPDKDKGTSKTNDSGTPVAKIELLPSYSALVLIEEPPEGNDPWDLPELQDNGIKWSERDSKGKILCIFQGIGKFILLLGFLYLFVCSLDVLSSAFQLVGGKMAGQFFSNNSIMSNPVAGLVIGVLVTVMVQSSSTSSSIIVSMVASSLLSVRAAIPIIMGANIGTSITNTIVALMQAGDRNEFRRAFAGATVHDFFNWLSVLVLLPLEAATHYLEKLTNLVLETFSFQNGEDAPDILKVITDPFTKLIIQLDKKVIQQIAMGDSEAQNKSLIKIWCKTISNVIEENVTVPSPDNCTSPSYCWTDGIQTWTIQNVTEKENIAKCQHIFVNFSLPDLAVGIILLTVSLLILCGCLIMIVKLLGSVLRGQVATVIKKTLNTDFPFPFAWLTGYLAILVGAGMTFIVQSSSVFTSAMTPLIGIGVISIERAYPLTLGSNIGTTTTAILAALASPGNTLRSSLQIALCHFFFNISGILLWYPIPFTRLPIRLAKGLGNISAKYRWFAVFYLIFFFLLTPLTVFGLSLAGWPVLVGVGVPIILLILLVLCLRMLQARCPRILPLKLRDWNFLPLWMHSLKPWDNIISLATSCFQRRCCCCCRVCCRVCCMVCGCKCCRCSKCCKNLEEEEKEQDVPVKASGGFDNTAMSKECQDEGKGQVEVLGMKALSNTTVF
- Test summary: Sodium-dependent phosphate uptake of Xenopus oocytes which expressed NaPi-2b (32P)
- Stated conditions: Xenopus oocytes expressing rat NaPi-2b, 32P radioactive phosphorus; read-out: IC50 (phosphate uptake inhibitory activity)
Examples of molecules with documented IC50 follow.
Reply numerically in nM, unit not repeated.

Example entries and their recorded answers appear below.
{"Molecule": "CCSCCNCc1ccc(C(=O)Nc2ccc(Br)cc2C(=O)N/N=C/c2ccc(C)cc2)cc1 [Compound 765]", "Measure unit": "nM", "Data value": 6880}
{"Molecule": "Cc1ccc(/C=N/NC(=O)c2cc(Br)ccc2NC(=O)c2ccc(CN(CC(C)O)CC(C)O)cc2)cc1 (stereo not shown) [Compound 304]", "Measure unit": "nM", "Data value": 1230}

Read the next record carefully.
Hello, please tell me recorded IC50 for this one: CCN(CC)CCN(Cc1cccc(C(=O)Nc2sc3c(c2C(=O)N/N=C/c2ccc(F)cc2)CCCC3)c1)C(C)=O [Compound 654] 2030

###

- Target or system: rat NaPi-2b (Rattus norvegicus)
- Test summary: Sodium-dependent phosphate uptake of Xenopus oocytes which expressed NaPi-2b (32P)
- Stated conditions: Xenopus oocytes expressing rat NaPi-2b, 32P radioactive phosphorus; read-out: IC50 (phosphate uptake inhibitory activity)
# if measured IC50 < 9 µM: Condition met  # else: Condition not met

Please let me know if Cc1ccc(/C=N/NC(=O)c2cc(N3CCCCC3)ccc2NC(=O)c2cccc(CSCC(O)CO)c2)cc1C (stereo not drawn) shows IC50 below 9 µM. Condition met

Please let me know if "O=C(Nc1ccccc1C(=O)N/N=C/c1cccc(F)c1)c1cccc(OC(F)(F)F)c1" shows IC50 below 9 µM. Condition met

Please let me know if "C/C(=N\NC(=O)c1cc(Br)ccc1NC(=O)c1cccnc1)c1ccc(C)cc1" shows IC50 below 9 µM. Condition not met

Please let me know if "O=C(Nc1ccccc1C(=O)N/N=C/c1ccccc1F)c1ccccc1" shows IC50 below 9 µM. Condition not met

Please let me know if "CN(CCO)Cc1ccc(C(=O)Nc2ccc(Cl)cc2C(=O)N/N=C/c2cccc(O)c2)cc1" shows IC50 below 9 µM. Condition not met

###

- Target or system: UniProtKB Q9JJ09
- Test summary: Sodium-dependent phosphate uptake of Xenopus oocytes which expressed NaPi-2b (32P)
- Stated conditions: Xenopus oocytes expressing rat NaPi-2b, 32P radioactive phosphorus; read-out: IC50 (phosphate uptake inhibitory activity)
# if measured IC50 < 2 µM: 1.0  # else: 0.0

Solved entries (count: 8):
{"Compound": "CCN(CC)CCNCc1cccc(C(=O)Nc2sc3c(c2C(=O)N/N=C/c2ccc(OC)cc2)CCC3)c1", "Target or system": "UniProtKB Q9JJ09", "Cat": 0.0}
{"Compound": "Cc1ccc(/C=N/NC(=O)c2cc(Cl)ccc2NC(=O)c2ccccn2)cc1", "Target or system": "UniProtKB Q9JJ09", "Cat": 1.0}
{"Compound": "Cc1ccc(/C=N/NC(=O)c2cc3ccccc3cc2NC(=O)c2cccc(CN(CC(C)O)CC(C)O)c2)cc1 (centres unmarked)", "Target or system": "UniProtKB Q9JJ09", "Cat": 1.0}
{"Compound": "COc1ccc(C(=O)Nc2scc(C)c2C(=O)N/N=C/c2ccc(C)cc2)cc1OC", "Target or system": "UniProtKB Q9JJ09", "Cat": 1.0}
{"Compound": "CCc1ccc(C(=O)Nc2ccc(Br)cc2C(=O)N/N=C/c2cccc(F)c2)cc1", "Target or system": "UniProtKB Q9JJ09", "Cat": 0.0}
{"Compound": "Cc1ccc(/C=N/NC(=O)c2cc(Cl)ccc2NC(=O)c2cccc(CN(C)CCO)c2)cc1C", "Target or system": "UniProtKB Q9JJ09", "Cat": 1.0}
{"Compound": "Cc1csc(NC(=O)c2cccc(CN3CCC(O)CC3)c2)c1C(=O)N/N=C/c1cccc(F)c1", "Target or system": "UniProtKB Q9JJ09", "Cat": 0.0}
{"Compound": "O=C(Nc1ccc(Br)cc1C(=O)N/N=C/c1ccc(F)cc1)c1cccs1", "Target or system": "UniProtKB Q9JJ09", "Cat": 0.0}

Turning now to a further record.
Please let me know if "CCN(CC)CCN(C)Cc1cccc(C(=O)Nc2scc(C)c2C(=O)N/N=C/c2ccc(Cl)c(C(F)(F)F)c2)c1" shows IC50 below 2 µM. 1.0

###

Examples of compounds with documented inhibition at 300 µM follow.
- Target or system: rat NaPi-2b (Rattus norvegicus, UniProt Q9JJ09)
- Construct: expressed in transfected cells; host or cells: Xenopus oocytes injected with cRNA
- Test summary: Sodium-dependent phosphate uptake of Xenopus oocytes which expressed NaPi-2b (32P)
- Format: cell-based
- Stated conditions: phosphate uptake, oocytes expressing rat NaPi-2b; 300 μM, determined from inhibition curve
Reply numerically in %, unit not repeated.

{"Compound": "O=C(Nc1ccc(Cl)cc1C(=O)N/N=C/c1ccc(F)cc1)c1cccc(CN(CCO)CCO)c1", "Target or system": "rat NaPi-2b (Rattus norvegicus, UniProt Q9JJ09)", "inhibition at 300 µM, %": 78.9}
{"Compound": "COc1ccc(/C=N/NC(=O)c2cc(Br)ccc2NC(=O)c2ccc(CNCCN3CCOCC3)cc2)cc1", "Target or system": "rat NaPi-2b (Rattus norvegicus, UniProt Q9JJ09)", "inhibition at 300 µM, %": 84.1}
{"Compound": "COc1ccc(C(=O)Nc2ccc(Cl)cc2C(=O)N/N=C/c2ccccn2)cc1OC", "Target or system": "rat NaPi-2b (Rattus norvegicus, UniProt Q9JJ09)", "inhibition at 300 µM, %": 30.7}

Hello, please tell me recorded inhibition at 300 µM for this one: Cc1ccc(/C=N/NC(=O)c2cc(N3CCCC(C(=O)O)C3)ccc2NC(=O)c2cccc(CSCCO)c2)cc1C (stereo not shown) 39.3

###

- Target or system: rat NaPi-2b (Rattus norvegicus)
- Test summary: Sodium-dependent phosphate uptake of Xenopus oocytes which expressed NaPi-2b (32P)
- Stated conditions: Xenopus oocytes expressing rat NaPi-2b, 32P radioactive phosphorus; read-out: IC50 (phosphate uptake inhibitory activity)
Examples of molecules with documented pIC50 follow.
In simple prose, pIC50 is minus the logarithm base ten of a concentration in moles per litre.

Example entries and their recorded answers appear below.
{"Molecule": "COc1ccc(/C=N/NC(=O)c2cc(N3CCCCC3)ccc2NC(=O)c2cccc(CSCC(=O)O)c2)cc1", "Target or system": "rat NaPi-2b (Rattus norvegicus)", "pIC50": 4.83}
{"Molecule": "COc1ccc(/C=N/NC(=O)c2ccccc2NC(=O)c2cccc(F)c2)cc1Br", "Target or system": "rat NaPi-2b (Rattus norvegicus)", "pIC50": 6.12}
{"Molecule": "COc1ccc(C(=O)Nc2ccccc2C(=O)N/N=C/c2cccc(O)c2)cc1OC", "Target or system": "rat NaPi-2b (Rattus norvegicus)", "pIC50": 5.39}
{"Molecule": "O=C(Nc1ccc(Br)cc1C(=O)N/N=C/c1cccc(F)c1)c1cccc(CSc2nc[nH]n2)c1", "Target or system": "rat NaPi-2b (Rattus norvegicus)", "pIC50": 6.68}
{"Molecule": "Cc1ccc(/C=N/NC(=O)c2cc(Br)ccc2NC(=O)c2ccc(CNCCN3CCOCC3)cc2)cc1C", "Target or system": "rat NaPi-2b (Rattus norvegicus)", "pIC50": 5.34}

Hello, please tell me recorded pIC50 for this one: CC(O)CN(Cc1cccc(C(=O)Nc2sc3ccccc3c2C(=O)N/N=C/c2ccc(Cl)c(C(F)(F)F)c2)c1)CC(C)O (stereo not shown) 6.46
